Target: T1, Human recombinant CD5L protein (Sino Biological, Catalog Number 10791-H08H) (human, UniProt O43866 20-347)
T1 construct: Bought protein; also called human CD5L; CD5L-His; not shown: 6xHIS-tag
T1 sequence (looked up): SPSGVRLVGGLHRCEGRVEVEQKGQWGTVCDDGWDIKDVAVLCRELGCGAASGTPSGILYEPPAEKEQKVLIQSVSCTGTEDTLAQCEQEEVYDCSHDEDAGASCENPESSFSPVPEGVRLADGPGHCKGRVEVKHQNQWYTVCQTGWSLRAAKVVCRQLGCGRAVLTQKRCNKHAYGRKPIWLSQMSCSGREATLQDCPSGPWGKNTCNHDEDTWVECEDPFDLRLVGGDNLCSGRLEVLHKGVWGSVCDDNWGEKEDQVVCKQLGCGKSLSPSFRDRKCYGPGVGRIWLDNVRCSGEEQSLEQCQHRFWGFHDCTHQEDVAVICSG
Assay: BLI (Octet RED96), antibody on protein A biosensors, CD5L 0.1-200 nM in solution, 1:1 fit

Binder: R-13 (antibody, V domains shown) VH: QSLEESGGRLVTPGTPLTLTCTVSGFSLSSYPMSWVRQAPGKGLEWIGIITSGGSIFYATWANGRFTISKTSTTVDLKITSPTTEDTATYFCARGYSSGTMMSSNLWGQGTLVTVSS VL: ELVLTQTPASVSEPVGGTVTIKCQASESISTYLSWYQQKPGQRPKLLIYRASTLESGVPSRFKGSGSGTEYTLTISGVQCADAATYYCQQGYTYKNVDNAFGGGTEVVVK
Kd: 1.72 nM
